Cited source for all entries: paper PMC9674830

TESTED ON: T1, C-terminal domain of subunit 1 of the general transcription regulator TFIIF (RAP74-CTD) (UniProt P35269 450-517)
T1 chain: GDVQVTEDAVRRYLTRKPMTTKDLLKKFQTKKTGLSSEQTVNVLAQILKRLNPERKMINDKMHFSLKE
EXPERIMENT: NMR
Positions of bridges follow the written chain, without caps; N, C: chain ends. Non-standard residues stand in square brackets, D forms with d. No end group written: not given here. pentenylalanine = pentenylalanine, unnatural amino acid di-substituted at Cα, crosslinked by ring-closing metathesis
Recorded measurements of pKd, one per entry
Notebook: values listed as pKd are -log10 of the concentration (mol/L).

| BINDER | pKd |
| --- | --- |
| KKPGASASW[pentenylalanine]QLF[pentenylalanine]EEQAAQAAKK (staple 10-14) [peptide γ_(Stpl)] | 3.70 |

Could you now consider this next binder?
Look at this binder and give its reported pKd. KKPGASLSWLQLFQEEQAAQAAKK (designed binder) [peptide γ]
3.20
